Listed here: items and their measured pIC50.
# TARGET DESC: acyl-CoA:cholesterol acyltransferase (ACAT) (Oryctolagus cuniculus)
# Sequence (G1SFD9 1-524): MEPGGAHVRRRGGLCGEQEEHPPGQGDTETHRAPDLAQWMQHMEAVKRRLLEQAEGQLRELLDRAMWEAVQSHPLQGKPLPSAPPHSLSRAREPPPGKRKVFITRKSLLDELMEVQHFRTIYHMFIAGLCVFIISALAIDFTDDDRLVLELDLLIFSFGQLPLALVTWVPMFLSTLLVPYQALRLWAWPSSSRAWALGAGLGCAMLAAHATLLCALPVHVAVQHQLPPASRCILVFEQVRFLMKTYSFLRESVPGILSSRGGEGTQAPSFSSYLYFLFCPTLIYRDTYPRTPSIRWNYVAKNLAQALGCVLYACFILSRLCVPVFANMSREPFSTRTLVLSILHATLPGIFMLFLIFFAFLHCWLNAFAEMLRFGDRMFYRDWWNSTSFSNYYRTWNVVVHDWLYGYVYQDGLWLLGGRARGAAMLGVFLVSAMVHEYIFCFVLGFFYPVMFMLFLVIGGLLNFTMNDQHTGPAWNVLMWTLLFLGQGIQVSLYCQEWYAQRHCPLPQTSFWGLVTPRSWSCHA
pIC50: −log10 of the molar value.

CCCCCCCCCCCc1nc(NC(=O)Nc2c(C(C)C)cccc2C(C)C)n[nH]1
< 5.30

Reported pIC50, molecule `CSc1nnc(NC(=O)Nc2c(C(C)C)cccc2C(C)C)[nH]1` : ____ < 5.30

Reported pIC50, molecule `CCCCCCCCCCCc1nc(NC(=O)Nc2c(C(C)C)cccc2C(C)C)n(C(C)=O)n1` : ____ < 5.30
